# target-under-test: mAChR M4 (Homo sapiens)
# Construct: expressed in transfected cells; host or cells: CHO-K1 cells stably transfected with M4 cDNA and chimeric G-protein Gqi5
# Sequence (P08173 1-479): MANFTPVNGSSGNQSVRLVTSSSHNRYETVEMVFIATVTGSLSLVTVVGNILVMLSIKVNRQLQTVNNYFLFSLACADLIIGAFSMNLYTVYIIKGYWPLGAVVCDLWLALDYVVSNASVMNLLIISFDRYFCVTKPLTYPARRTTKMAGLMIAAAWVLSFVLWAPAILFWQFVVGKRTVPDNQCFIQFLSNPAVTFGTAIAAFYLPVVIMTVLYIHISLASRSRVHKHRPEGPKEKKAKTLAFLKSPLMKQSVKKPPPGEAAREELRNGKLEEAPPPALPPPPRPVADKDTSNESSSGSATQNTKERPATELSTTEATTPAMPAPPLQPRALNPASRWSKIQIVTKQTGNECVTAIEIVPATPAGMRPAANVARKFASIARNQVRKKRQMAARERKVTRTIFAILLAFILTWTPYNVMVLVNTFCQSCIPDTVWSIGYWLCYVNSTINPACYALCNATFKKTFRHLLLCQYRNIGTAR
# method: mAChR M4 cell-based functional assay (calcium mobilization, potentiation of EC20 acetylcholine response)
# cond: mAChR M4 cell-based functional assay; >10,000 estimated for low potency compounds without plateau; read-out: EC50
quantity-kind: EC50 (nM)

{"compound": "Cc1nnc2sc(C(=O)NC3CN(S(=O)(=O)c4ccccc4)C3)c(N)c2c1C", "unit-symbol": "nM", "obs-value": 81}
{"compound": "Cc1nnc2sc(C(=O)N3CCC(c4ccccc4)C3)c(N)c2c1C (stereo not drawn)", "unit-symbol": "nM", "obs-value": 630}
{"compound": "COCc1ccc(CNC(=O)c2sc3nnc(C)c(C)c3c2N)cc1", "unit-symbol": "nM", "obs-value": 97}
{"compound": "Cc1nnc2sc(C(=O)NCc3cccc(F)c3F)c(N)c2c1C", "unit-symbol": "nM", "obs-value": 100}
{"compound": "Cc1nnc2sc(C(=O)NCc3ccc(OC(F)F)cc3)c(N)c2c1C", "unit-symbol": "nM", "obs-value": 13}

[A] Cc1nnc2sc(C(=O)NC3CN(S(=O)(=O)c4ccc5ncccc5c4)C3)c(N)c2c1C
[B] Cc1nnc2sc(C(=O)N3CCC(NC(=O)c4ccncc4)C3)c(N)c2c1C (stereo not drawn)
[C] Cc1nnc2sc(C(=O)NCc3ccncc3)c(N)c2c1C
[D] CCc1ccc(CNC(=O)c2sc3nnc(C)c(C)c3c2N)cc1
[E] Cc1nnc2sc(C(=O)NCc3ccc(C(C)(O)C(F)(F)F)cc3)c(N)c2c1C (single isomer, unassigned) [Example B186]
Put the entries in order of EC50, starting with the largest number. Please write the labels in the order that was asked for. B, C, A, D, E
(B: 5000 nM, C: 320 nM, A: 85 nM, D: 47 nM, E: 19 nM)

[I] Cc1nnc2sc(C(=O)NCc3ccc(S(=O)(=O)c4ccccc4)cc3)c(N)c2c1C
[II] Cc1nnc2sc(C(=O)N3CCC(C4CCCCC4)C3)c(N)c2c1C (stereo not drawn)
[III] Cc1ccc(S(=O)(=O)NC2CCN(C(=O)c3sc4nnc(C)c(C)c4c3N)C2)s1 (stereo not drawn)
[IV] Cc1nnc2sc(C(=O)NCc3ccc(-c4ccncc4)cc3)c(N)c2c1C
Let's sort these by EC50, smallest first. Go ahead? Sort the labels as requested; that list is your answer. IV, I, III, II

---

# target-under-test: mAChR M4 (Homo sapiens)
# Construct: expressed in transfected cells; host or cells: CHO-K1 cells stably transfected with M4 cDNA and chimeric G-protein Gqi5
# method: mAChR M4 cell-based functional assay (calcium mobilization, potentiation of EC20 acetylcholine response)
# cond: % ACh maximum at 30 μM
quantity-kind: Emax at 30 µM (%)

{"compound": "COc1cccc(S(=O)(=O)NC2CCN(C(=O)c3sc4nnc(C)c(C)c4c3N)C2)c1 (stereo not drawn)", "quantity-kind": "Emax at 30 µM", "obs-value": 65}
{"compound": "Cc1nnc2sc(C(=O)NC3CCN(S(=O)(=O)c4ccccc4)C3)c(N)c2c1C (stereo not drawn)", "quantity-kind": "Emax at 30 µM", "obs-value": 68}
{"compound": "Cc1nnc2sc(C(=O)NCc3ccn(C)c(=O)c3)c(N)c2c1C", "quantity-kind": "Emax at 30 µM", "obs-value": 60}
{"compound": "COc1ccc(C2CC2NC(=O)c2sc3nnc4c(c3c2N)CCCC4)cc1 (stereo not drawn)", "quantity-kind": "Emax at 30 µM", "obs-value": 48}
{"compound": "Cc1nnc2sc(C(=O)N3CC(c4ccccc4)(N(C)C)C3)c(N)c2c1C", "quantity-kind": "Emax at 30 µM", "obs-value": 42}

[A] Cc1nnc2sc(C(=O)N3CCC(NC(=O)c4ccc(F)c(F)c4)C3)c(N)c2c1C (stereo not drawn)
[B] Cc1nnc2sc(C(=O)NC3CN(C(=O)c4ccc(F)cc4F)C3)c(N)c2c1C
Param metric = Emax at 30 µM; output whichever of A , B has the minimum value. Write down the label attached to your selection. A

[I] Cc1nnc2sc(C(=O)NCc3ccc(-n4cccn4)cc3)c(N)c2c1C
[II] COC1(CCC2OCCCO2)CN(C(=O)c2sc3nnc(C)c(C)c3c2N)C1
For this pair, I and II , which shows a numerically higher Emax at 30 µM? Label of pick, please. I
(I: 70%, II: 43%)

[a] Cc1nnc2sc(C(=O)NCc3ccc([S+]([O-])C(F)F)c(F)c3)c(N)c2c1C (stereo not drawn)
[b] Cc1nnc2sc(C(=O)NCCNC(=O)c3ccc(F)cc3)c(N)c2c1C
For the two items a and b , which reports the higher Emax at 30 µM value? Refer to your chosen item by its label in the answer. a
(a: 61%, b: 38%)

---

# target-under-test: mAChR M4 (Homo sapiens)
# Construct: expressed in transfected cells; host or cells: CHO-K1 cells stably transfected with M4 cDNA and chimeric G-protein Gqi5
# method: mAChR M4 cell-based functional assay (calcium mobilization, potentiation of EC20 acetylcholine response)
# cond: mAChR M4 cell-based functional assay; >10,000 estimated for low potency compounds without plateau; read-out: EC50
pEC50: −log10 of the molar value.
quantity-kind: pEC50

{"compound": "Cc1nnc2sc(C(=O)NC3CCN(c4ccccc4F)C3)c(N)c2c1C (centres unmarked)", "pEC50": 7.12}
{"compound": "COc1ccc(SC2CN(C(=O)c3sc4nnc(C)c(C)c4c3N)C2)cc1", "pEC50": 6.96}
{"compound": "Cc1nnc2sc(C(=O)NCc3ccn(C)c(=O)c3)c(N)c2c1C", "pEC50": 5.92}
{"compound": "Cc1nnc2sc(C(=O)NCc3ccccc3)c(N)c2c1C", "pEC50": 6.77}
{"compound": "Cc1nnc2sc(C(=O)NC3CN(C(=O)N(C)c4ccccc4)C3)c(N)c2c1C", "pEC50": 7.28}
{"compound": "Cc1nnc2sc(C(=O)NCc3ccc4c(c3)CC(=O)N4)c(N)c2c1C", "pEC50": 6.44}
{"compound": "CCCOC(=O)NC1CN(C(=O)c2sc3nnc(C)c(C)c3c2N)C1", "pEC50": 5.77}
{"compound": "Nc1c(C(=O)NCc2ccccc2)sc2nnc3c(c12)CCCC3", "pEC50": 6.89}
{"compound": "COc1cccc(C2(F)CN(C(=O)c3sc4nnc(C)c(C)c4c3N)C2)c1", "pEC50": 6.48}
{"compound": "Cc1nnc2sc(C(=O)N3CC(F)(c4cccc(-c5cccnc5)c4)C3)c(N)c2c1C", "pEC50": 6.54}

[P] Cc1nnc2sc(C(=O)NC3CN(C(=O)C4CCCCC4)C3)c(N)c2c1C
[Q] Cc1nnc2sc(C(=O)N3CC(NS(=O)(=O)c4cccc5ncccc45)C3)c(N)c2c1C
[R] Cc1nnc2sc(C(=O)NCc3ccc([S+]([O-])C(F)F)c(F)c3)c(N)c2c1C (centres unmarked)
[S] Cc1nnc2sc(C(=O)N3CCC(c4ccncc4)C3)c(N)c2c1C (centres unmarked)
List these items ordered by pEC50, big to small. Arrange the labels as the request states and list them. R, P, Q, S
(R: 7.82, P: 6.89, Q: 5.96, S: 5.66)

---

# target-under-test: mAChR M4 (Homo sapiens)
# Construct: expressed in transfected cells; host or cells: CHO-K1 cells stably transfected with M4 cDNA and chimeric G-protein Gqi5
# Sequence (P08173 1-479): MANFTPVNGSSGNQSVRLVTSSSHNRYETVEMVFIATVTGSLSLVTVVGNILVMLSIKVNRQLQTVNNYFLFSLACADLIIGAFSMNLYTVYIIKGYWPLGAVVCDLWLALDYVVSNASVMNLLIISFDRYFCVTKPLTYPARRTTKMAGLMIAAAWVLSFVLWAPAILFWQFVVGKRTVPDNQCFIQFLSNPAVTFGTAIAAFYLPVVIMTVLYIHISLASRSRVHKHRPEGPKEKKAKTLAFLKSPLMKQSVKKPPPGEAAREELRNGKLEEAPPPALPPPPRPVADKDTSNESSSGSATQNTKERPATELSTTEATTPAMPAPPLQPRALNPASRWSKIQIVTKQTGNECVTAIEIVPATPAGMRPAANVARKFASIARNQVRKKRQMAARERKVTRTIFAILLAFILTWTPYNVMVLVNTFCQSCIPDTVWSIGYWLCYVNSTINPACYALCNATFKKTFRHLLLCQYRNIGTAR
# method: mAChR M4 cell-based functional assay (calcium mobilization, potentiation of EC20 acetylcholine response)
# cond: mAChR M4 cell-based functional assay; >10,000 estimated for low potency compounds without plateau; read-out: EC50
pEC50: −log10 of the molar value.
quantity-kind: pEC50

[1] Cc1nnc2sc(C(=O)NCc3ccc(-n4ccccc4=O)c(F)c3)c(N)c2c1C
[2] COc1cccc(C(=O)N2CC(NC(=O)c3sc4nnc(C)c(C)c4c3N)C2)c1
[3] Cc1nnc2sc(C(=O)NCc3ccc(-c4ccc5nccnc5c4)cc3)c(N)c2c1C
// sort entries: pEC50, high to low Put the labels in the order asked and list them. 1, 2, 3
